I'd appreciate it if you could supply EC50 values for the items below.
Biological target: Voltage-dependent T-type calcium channel subunit alpha-1H (Homo sapiens);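 also: channel activity triggered by adding a high calcium stimulation buffer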
Sequence (O95180 whole entry): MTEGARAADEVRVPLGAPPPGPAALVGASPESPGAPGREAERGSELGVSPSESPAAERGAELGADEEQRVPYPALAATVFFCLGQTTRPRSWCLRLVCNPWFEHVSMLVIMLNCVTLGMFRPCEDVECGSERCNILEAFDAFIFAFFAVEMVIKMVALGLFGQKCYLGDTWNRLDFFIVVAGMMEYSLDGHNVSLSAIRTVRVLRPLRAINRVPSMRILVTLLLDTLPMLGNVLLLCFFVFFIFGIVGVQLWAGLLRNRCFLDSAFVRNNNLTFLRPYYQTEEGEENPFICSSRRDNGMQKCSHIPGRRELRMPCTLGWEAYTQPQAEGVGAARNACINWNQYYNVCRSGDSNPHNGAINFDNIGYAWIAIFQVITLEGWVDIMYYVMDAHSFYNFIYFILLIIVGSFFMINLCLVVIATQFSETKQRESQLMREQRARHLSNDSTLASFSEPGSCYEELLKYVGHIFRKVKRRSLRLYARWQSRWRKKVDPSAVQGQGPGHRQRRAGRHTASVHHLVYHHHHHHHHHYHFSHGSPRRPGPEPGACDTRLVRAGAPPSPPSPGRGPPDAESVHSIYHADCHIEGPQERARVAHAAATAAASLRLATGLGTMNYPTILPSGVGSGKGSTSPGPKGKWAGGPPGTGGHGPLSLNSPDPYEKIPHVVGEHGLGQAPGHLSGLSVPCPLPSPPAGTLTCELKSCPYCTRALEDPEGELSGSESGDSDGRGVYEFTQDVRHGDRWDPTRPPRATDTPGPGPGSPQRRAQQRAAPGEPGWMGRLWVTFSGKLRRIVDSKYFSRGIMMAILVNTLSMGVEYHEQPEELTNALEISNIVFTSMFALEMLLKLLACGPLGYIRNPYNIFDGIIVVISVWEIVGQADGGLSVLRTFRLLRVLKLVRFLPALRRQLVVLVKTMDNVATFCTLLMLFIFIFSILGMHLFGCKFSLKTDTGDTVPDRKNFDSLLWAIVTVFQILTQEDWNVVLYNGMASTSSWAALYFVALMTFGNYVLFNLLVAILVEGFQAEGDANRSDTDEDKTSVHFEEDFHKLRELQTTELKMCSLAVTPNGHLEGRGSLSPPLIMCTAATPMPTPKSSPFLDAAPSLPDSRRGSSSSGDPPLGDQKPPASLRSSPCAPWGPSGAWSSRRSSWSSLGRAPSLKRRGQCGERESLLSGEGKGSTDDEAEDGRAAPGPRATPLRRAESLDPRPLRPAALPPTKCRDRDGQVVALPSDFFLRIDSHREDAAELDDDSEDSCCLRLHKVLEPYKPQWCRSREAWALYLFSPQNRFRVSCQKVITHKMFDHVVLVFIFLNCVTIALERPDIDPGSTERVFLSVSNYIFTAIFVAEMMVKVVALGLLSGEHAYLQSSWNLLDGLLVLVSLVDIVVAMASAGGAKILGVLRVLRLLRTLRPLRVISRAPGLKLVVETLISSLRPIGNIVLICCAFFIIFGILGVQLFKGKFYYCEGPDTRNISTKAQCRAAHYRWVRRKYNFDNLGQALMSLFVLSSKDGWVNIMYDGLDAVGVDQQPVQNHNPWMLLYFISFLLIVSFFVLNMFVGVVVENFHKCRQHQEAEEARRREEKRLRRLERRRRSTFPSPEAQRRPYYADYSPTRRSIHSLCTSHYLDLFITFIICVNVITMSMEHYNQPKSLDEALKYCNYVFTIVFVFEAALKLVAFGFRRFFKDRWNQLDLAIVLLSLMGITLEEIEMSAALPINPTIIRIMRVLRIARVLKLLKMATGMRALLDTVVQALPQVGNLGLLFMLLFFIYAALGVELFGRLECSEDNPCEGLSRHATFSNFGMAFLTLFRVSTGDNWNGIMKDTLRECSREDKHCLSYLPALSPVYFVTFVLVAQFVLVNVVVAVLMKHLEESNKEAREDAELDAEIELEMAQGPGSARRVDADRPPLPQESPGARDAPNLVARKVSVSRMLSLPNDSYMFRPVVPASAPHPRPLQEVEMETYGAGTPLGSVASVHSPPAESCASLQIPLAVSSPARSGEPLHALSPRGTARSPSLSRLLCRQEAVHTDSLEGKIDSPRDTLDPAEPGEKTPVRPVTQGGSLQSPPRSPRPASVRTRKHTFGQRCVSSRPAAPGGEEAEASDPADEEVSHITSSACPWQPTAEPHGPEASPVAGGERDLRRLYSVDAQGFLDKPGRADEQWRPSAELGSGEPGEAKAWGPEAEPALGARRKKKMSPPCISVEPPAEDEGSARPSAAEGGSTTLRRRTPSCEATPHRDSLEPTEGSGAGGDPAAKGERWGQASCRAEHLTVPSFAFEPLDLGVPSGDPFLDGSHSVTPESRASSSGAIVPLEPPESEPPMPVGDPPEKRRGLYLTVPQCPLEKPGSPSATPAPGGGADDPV
Assay type: functional
The source made the active and inactive calls.

[
  {
    "molecule": "CCc1ccc(S(=O)(=O)NCc2csc(-c3ccccc3)n2)s1",
    "testTarget": "Voltage-dependent T-type calcium channel subunit alpha-1H (Homo sapiens)",
    "EC50": "4.61 µM (active)"
  },
  {
    "molecule": "CC(=O)N1c2ccccc2N(Cc2ccc(C)cc2C)C(=O)C1(C)C",
    "testTarget": "Voltage-dependent T-type calcium channel subunit alpha-1H (Homo sapiens)",
    "EC50": "4.43 µM (active)"
  },
  {
    "molecule": "COc1cccc(-c2nnc(SCC(=O)NCc3ccc4c(c3)OCO4)n2Cc2ccco2)c1",
    "testTarget": "Voltage-dependent T-type calcium channel subunit alpha-1H (Homo sapiens)",
    "EC50": "8.92 µM (active)"
  }
]

Can you give me EC50 for all of these, one by one?
1. O=C(Nc1nnc(-c2ccc3c(c2)CCCC3)o1)c1ccccc1
2. CCOc1ccc(C(=O)Nc2c3c(nn2C(C)(C)C)CSC3)cc1OCC
3. Cc1ccc(OCC(O)Cn2c(=N)n(Cc3ccccc3)c3ccccc32)cc1 (stereo unspecified)

Result:
3.25 µM (active)
3.79 µM (active)
4.11 µM (active)
